Target System: T1, human activated protein C (human, UniProt P04070 43-197; P04070 212-461)
T1 construct: also called human aPC; human APC
Procedure Summary: SPR (Biacore), 1:1 binding model
Measurement Type: koff (s⁻¹)
Reply with just the number (in s⁻¹).

Hu1573-7 (antibody, V domains shown, Humanized IgG, human gamma 1 / kappa constant regions by vectors pCP-hCg1 and pCP-hck; also called H1573VH.1C + H1573Vk.2A) VH: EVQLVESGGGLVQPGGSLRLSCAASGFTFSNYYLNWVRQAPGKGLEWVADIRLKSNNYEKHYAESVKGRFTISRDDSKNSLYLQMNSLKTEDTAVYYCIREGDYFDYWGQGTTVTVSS VL: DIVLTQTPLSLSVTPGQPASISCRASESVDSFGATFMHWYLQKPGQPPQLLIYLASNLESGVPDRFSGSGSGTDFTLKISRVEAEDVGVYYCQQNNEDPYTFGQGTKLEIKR    0.00857

Could you tell me which koff is on file for Hu1573-4 (antibody, V domains shown, Humanized IgG, human gamma 1 / kappa constant regions by vectors pCP-hCg1 and pCP-hck; also called H1573VH.1B + H1573Vk.2A) VH: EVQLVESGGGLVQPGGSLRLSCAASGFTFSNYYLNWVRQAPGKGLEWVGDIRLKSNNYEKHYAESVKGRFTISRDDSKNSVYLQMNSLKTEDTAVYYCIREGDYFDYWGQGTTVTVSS VL: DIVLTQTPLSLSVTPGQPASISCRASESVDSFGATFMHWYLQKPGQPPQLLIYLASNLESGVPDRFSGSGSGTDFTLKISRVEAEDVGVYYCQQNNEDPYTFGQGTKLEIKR ?
0.00772
